biological target: recombinant BACE1 protein (Homo sapiens, UniProt P56817); experiment: Biochemical FRET based assay; details: recombinant BACE1 1 μg/ml, 120 minutes at room temperature, pH 5.0; read-out: Biochemical FRET based assay pIC50 (converted)
Sequence (P56817 46-501): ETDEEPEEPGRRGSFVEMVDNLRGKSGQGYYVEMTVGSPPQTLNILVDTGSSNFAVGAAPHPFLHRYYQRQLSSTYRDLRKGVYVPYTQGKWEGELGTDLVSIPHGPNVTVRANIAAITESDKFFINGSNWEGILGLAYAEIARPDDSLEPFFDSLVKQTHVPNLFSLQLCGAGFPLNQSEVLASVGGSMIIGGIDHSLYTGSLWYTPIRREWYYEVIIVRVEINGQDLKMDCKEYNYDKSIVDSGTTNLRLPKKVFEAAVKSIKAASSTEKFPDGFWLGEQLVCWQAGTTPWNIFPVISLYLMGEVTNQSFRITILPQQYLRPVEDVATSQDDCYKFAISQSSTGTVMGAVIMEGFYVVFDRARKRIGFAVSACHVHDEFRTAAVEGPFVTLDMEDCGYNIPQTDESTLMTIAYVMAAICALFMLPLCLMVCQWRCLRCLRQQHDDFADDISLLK
# label = 1 if IC50 < 300 nM else 0

CC1(c2cccc(NC(=O)c3ncc(Cl)cc3F)c2)N=C(N)COC1F (single isomer, unassigned) [Compound 164]; 0

From here, focus on the item given below.
Is the reported IC50 for CC1(c2cc(NC(=O)c3ccc(Cl)cn3)cc(C(F)(F)F)c2)COCC(N)=N1 (stereo not shown) strictly below 300 nM? 0

* * *

What IC50 was measured for each of the following?
target: recombinant BACE1 protein (Homo sapiens, UniProt P56817); experiment: Biochemical FRET based assay; conditions: recombinant BACE1 1 μg/ml, 120 minutes at room temperature, pH 5.0; read-out: Biochemical FRET based assay pIC50 (converted)

N#Cc1cnc(C(=O)Nc2cccc([C@@]3(C4CC4)N=C(N)CO[C@@H]3C(F)(F)F)c2)c(Cl)c1; 97.7 nM
CCC1(c2cc(NC(=O)c3cnc(OC)cn3)ccc2F)N=C(N)COC1F (stereo not shown) [Compound 281]; 74.1 nM
COc1cnc(C(=O)Nc2cccc(C3(C)N=C(N)COC3F)c2)cn1 (stereo not shown) [Compound 80]; 97.7 nM

Look at each molecule and report its IC50.
1. C[C@]1(c2cccc(NC(=O)c3ncc(Cl)cc3Cl)c2)N=C(N)CO[C@]1(F)C(F)(F)F
2. CC1(c2cccc(-c3cncnc3)c2)N=C(N)COC1F (single isomer, unassigned) [Compound 94]
3. C[C@]1(c2cc(NC(=O)c3ccncn3)ccc2F)N=C(N)CO[C@H]1C(F)(F)F
4. CC1(c2cccc(-c3cncc(C#N)c3)c2)N=C(N)COC1C(F)(F)F (stereo not shown) [Compound 171]

20.4 nM
> 30200 nM
832 nM
1120 nM

* * *

target: recombinant BACE1 protein (Homo sapiens, UniProt P56817); assay: Biochemical FRET based assay; settings: recombinant BACE1 1 μg/ml, 120 minutes at room temperature, pH 5.0; read-out: Biochemical FRET based assay pIC50 (converted)
Exercise: state measured log10 IC50 for each of the compounds provided.
All values: log10 IC50 [µM].

Before answering, review these 4 worked examples.
COc1cnc(C(=O)Nc2cccc(C3(C)N=C(N)COC3(F)C(F)(F)F)c2)cn1 (single isomer, unassigned) [Compound 178]; 1.30
NC1=N[C@@](c2cc(NC(=O)c3ncc(Cl)cc3Cl)ccc2F)(C2CC2)[C@H](C(F)(F)F)OC1; -1.60
C[C@]1(c2cc(NC(=O)c3ncc(C#N)cc3Cl)ccc2F)N=C(N)CO[C@@H]1F; -1.40
N#Cc1cnc(C(=O)Nc2ccc(F)c([C@@]3(C4CC4)N=C(N)CO[C@H]3C(F)(F)F)c2)c(Cl)c1; -1.48

Attention now shifts to the item below.
Need log10 IC50 of CC1(c2cccc(-c3cncnc3)c2)N=C(N)COC1F (single isomer, unassigned) [Compound 97] , thanks. 0.79

* * *

Structures can show the parent of a compound that is named as a salt.
One threshold, 200 °C, splits the recorded melting point values: lower ones are label 1, equal or higher ones are label 0.

Study these solved cases before continuing.
CC1(c2cccc(NC(=O)c3ncccc3F)c2)COCC(N)=N1 (racemic); label 1
NC1=NC(c2cccc(NC(=O)c3ccc(Cl)cn3)c2)(C2CC2)COC1 (racemic); label 1
CC1(c2cccc(-c3ccccc3)c2)COCC(N)=N1 (racemic) (as salt: TFA); label 0

melting point under 200 °C? Item: CC1(c2cc(NC(=O)c3ncc(Cl)cc3F)ccc2F)N=C(N)COC1F (single isomer, unassigned) label 1

Do the same for CC1(c2cccc(-c3cncnc3)c2)N=C(N)COC1F (single isomer, unassigned) [Compound 94] please label 1

* * *

target: recombinant BACE1 protein (Homo sapiens); assay: Biochemical FRET based assay; details: recombinant BACE1 1 μg/ml, 120 minutes at room temperature, pH 5.0; read-out: Biochemical FRET based assay pIC50 (converted)
parameter: log10 IC50 (log10 of the value in µM)
In plain terms, each number is the log10 of measured IC50 in µM.

Sample records with log10 IC50:
N#Cc1cnc(C(=O)Nc2cccc([C@@]3(C4CC4)N=C(N)CO[C@H]3C(F)(F)F)c2)c(Cl)c1; -1.49
N#Cc1ccc(C(=O)Nc2ccc(F)c([C@@]3(C4CC4)N=C(N)CO[C@@H]3F)c2)nc1; -0.96
C[C@]1(c2cc(NC(=O)c3ncc(C#N)cc3Cl)ccc2F)N=C(N)CO[C@]1(F)C(F)(F)F; -1.44
COc1cnc(C(=O)Nc2cccc(C3(C)N=C(N)COC3F)c2)cn1 (single isomer, unassigned) [Compound 131]; -1.45
C[C@@]1(c2cc(-c3cncnc3)c(F)cc2F)N=C(N)CO[C@H]1F (single isomer, unassigned); -0.20

For each of the molecules below, note its log10 IC50.
1. C[C@]1(c2cc(-c3cncc(Cl)c3)c(F)cc2F)N=C(N)CO[C@H]1C(F)(F)F
2. NC1=N[C@@](c2cccc(NC(=O)c3cnc(OCC(F)(F)F)cn3)c2)(C2CC2)[C@@H](F)OC1
3. COc1cnc(C(=O)Nc2cccc([C@@]3(C4CC4)N=C(N)CO[C@]3(F)C(F)(F)F)c2)cn1
4. C[C@@]1(c2cccc(NC(=O)c3ccc(Cl)cn3)c2)COC2(CC2)C(N)=N1
5. NC1=NC(c2cccc(NC(=O)c3ccc(Cl)cn3)c2)(C2CC2)COC1 (racemic) [Compound 153]
6. C[C@]1(c2cc(NC(=O)c3ncc(Cl)cc3Cl)ccc2F)N=C(N)CO[C@H]1C(F)(F)F
7. CC1(c2cccc(NC(=O)c3ncc(Cl)cc3F)c2)N=C(N)COC1(F)C(F)(F)F (single isomer, unassigned) [Compound 175]

1: -0.35; 2: -1.21; 3: -0.32; 4: -0.99; 5: -1.05; 6: -1.46; 7: -0.53

Dear colleague, could you please provide log10 IC50 for the molecules listed below?
1. C[C@]1(c2cc(NC(=O)c3ccc(C#N)cn3)ccc2F)N=C(N)CO[C@@]1(F)C(F)(F)F
2. C[C@]1(c2cccc(NC(=O)c3ncc(C#N)cc3Cl)c2)N=C(N)CO[C@@]1(F)C(F)(F)F
3. C[C@]1(c2cccc(NC(=O)c3ccc(C#N)cn3)c2)N=C(N)CO[C@]1(F)C(F)(F)F
4. NC1=N[C@@](c2cc(-c3cncnc3)ccc2F)(C2CC2)[C@](F)(C(F)(F)F)OC1

[-1.39, -0.50, -1.59, -0.18]
